- tested.system: human DGKα (Homo sapiens)
- Construct: TVMV protease cleavage site (C); Hexa-His (C); made in house; host or cells: Sf9 insect cells (baculovirus, Bac-to-Bac)
- test: DGKα LIPGLO assay (extruded liposome substrate), in vitro DGK inhibition
- Type: biochemical
- condition.parameters: liposome (LIPGLO) assay; read-out: DGKa LIPGLO IC50
Each item that follows carries a reported IC50.
readout.type: IC50

CC[C@@H]1CN(c2cc(=O)n(C)c3ccc(C#N)nc23)[C@@H](C)CN1C(c1ccc(F)cc1)c1ccnc(C)n1 (single isomer, unassigned) [Example 418]: 1.5 µM
CC[C@@H]1CN(c2cc(=O)n(C)c3ccc(C#N)nc23)[C@@H](C)CN1C(c1ccc(F)cc1)c1nc(C2CC2)no1 (stereo partly drawn) [Example 1117]: 0.015 µM
C[C@@H]1CN(c2cc(=O)n(C)c3ccc(C#N)nc23)[C@@H](C)CN1C(c1ccc(F)cc1)c1cnn2ccccc12 (single isomer, unassigned) [Example 699]: 47 µM
CC(c1ccc(C#N)cc1F)N1C[C@H](C)N(c2cc(=O)n(C)c3ccc(C#N)nc23)C[C@H]1C (single isomer, unassigned) [Example 1227]: 0.051 µM
Cn1c(=O)cc(N2CCN(C(c3ccc(F)cc3)c3ccc(F)cc3)C(C(=O)OC3CC3)C2)c2nc(C#N)ccc21 (single isomer, unassigned) [Example 107]: 40 µM
CC[C@@H]1CN(c2cc(=O)n(C)c3ccc(C#N)nc23)[C@@H](C)CN1Cc1ccc(OC(F)(F)F)cc1OC: 1.5 µM
CC[C@H]1CN(C(c2ccc(F)cc2)c2nc(C3CC3)no2)[C@H](CC)CN1c1cc(=O)n(C)c2ccc(C#N)nc12 (stereo partly drawn): 0.08 µM
C[C@@H]1CN(c2c(C#N)c(=O)n(C)c3ccc(C#N)nc23)CCN1C(c1ccc(F)cc1)c1nc(C2CC2)no1 (single isomer, unassigned) [Example 1030]: 2.2 µM
C[C@@H]1CN(c2cc(=O)n(C)c3ccc(C#N)nc23)[C@@H](C)CN1C(c1ccc(F)cc1)c1ncco1 (stereo partly drawn) [Example 718]: 0.09 µM
CC(c1ccc(C2(C#N)CC2)cc1)N1C[C@H](C)N(c2cc(=O)n(C)c3ccc(C#N)nc23)C[C@H]1C (stereo partly drawn) [Example 1253]: 1.9 µM
CC(c1ccccc1OC(F)(F)F)N1C[C@H](C)N(c2cc(=O)n(C)c3ccc(C#N)nc23)C[C@H]1C (single isomer, unassigned) [Example 1213]: 56 µM
CC[C@H]1CN(C(C)c2ccc(C(F)(F)F)cc2)[C@H](C)CN1c1cc(=O)n(C)c2ccc(C#N)nc12 (single isomer, unassigned) [Example 1144]: 0.26 µM

====

- tested.system: human DGKα (Homo sapiens, UniProt P23743)
- Construct: TVMV protease cleavage site (C); Hexa-His (C); made in house; host or cells: Sf9 insect cells (baculovirus, Bac-to-Bac)
- Sequence (P23743 with tags, fused parts or gaps): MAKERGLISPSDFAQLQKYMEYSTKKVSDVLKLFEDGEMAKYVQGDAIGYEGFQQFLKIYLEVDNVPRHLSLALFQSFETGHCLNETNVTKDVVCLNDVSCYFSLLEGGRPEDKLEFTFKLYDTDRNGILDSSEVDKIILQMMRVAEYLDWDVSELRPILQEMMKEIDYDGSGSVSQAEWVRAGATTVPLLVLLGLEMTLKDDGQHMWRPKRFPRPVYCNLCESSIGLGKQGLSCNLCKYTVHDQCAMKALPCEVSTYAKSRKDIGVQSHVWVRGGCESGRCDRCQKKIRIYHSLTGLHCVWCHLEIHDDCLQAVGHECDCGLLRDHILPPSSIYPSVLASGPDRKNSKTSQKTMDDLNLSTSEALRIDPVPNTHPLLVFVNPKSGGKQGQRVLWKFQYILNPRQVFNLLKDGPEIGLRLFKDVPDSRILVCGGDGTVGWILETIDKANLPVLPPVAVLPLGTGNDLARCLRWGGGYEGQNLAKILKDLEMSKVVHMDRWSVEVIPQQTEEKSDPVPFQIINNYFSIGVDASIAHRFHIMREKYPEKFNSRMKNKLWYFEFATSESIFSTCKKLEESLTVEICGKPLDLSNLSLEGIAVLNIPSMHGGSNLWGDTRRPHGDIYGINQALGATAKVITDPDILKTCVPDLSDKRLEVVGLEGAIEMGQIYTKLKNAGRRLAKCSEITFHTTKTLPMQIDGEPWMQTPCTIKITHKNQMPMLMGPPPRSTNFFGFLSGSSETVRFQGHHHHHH
- test: DGKα LIPGLO assay (extruded liposome substrate), in vitro DGK inhibition
- Type: biochemical
- condition.parameters: liposome (LIPGLO) assay; read-out: DGKa LIPGLO IC50
// boundary case: IC50 equal to 1 µM maps to not fulfilled; strictly smaller maps to fulfilled

COc1ccc(C(c2ccc(F)cc2)N2C[C@H](C)N(c3cc(=O)n(C)c4ccc(C#N)nc34)C[C@H]2C)cc1 (stereo partly drawn) [Example 659]: not fulfilled
CC(c1ccc(OC(F)(F)F)cc1)N1C[C@H](C)N(c2cc(=O)n(C)c3ccc(C#N)nc23)C[C@H]1CN1CCN(C)CC1 (stereo partly drawn) [Example 1418]: not fulfilled
C[C@@H]1CN(c2cc(=O)n(C)c3ccc(C#N)nc23)[C@@H](C)CN1C(c1ccc(F)cc1)c1ccc(Cl)cn1 (single isomer, unassigned) [Example 212]: fulfilled
C[C@@H]1CN(c2cc(=O)n(C)c3ccc(C#N)nc23)[C@@H](C)CN1C(c1ccc(F)cc1)C(F)(F)F (single isomer, unassigned) [Example 583]: fulfilled
CC(c1ccc(F)cn1)N1C[C@H](C)N(c2cc(=O)n(C)c3ccc(C#N)nc23)C[C@H]1C (single isomer, unassigned) [Example 640]: fulfilled
C[C@@H]1CN(c2cc(=O)n(C)c3ccc(C#N)nc23)[C@@H](C)CN1C(c1cccc(F)c1)c1cccc(F)c1: not fulfilled
CCC(c1ccc(OC(F)(F)F)cc1)N1C[C@H](C)N(c2cc(=O)n(C)c3ccc(C#N)nc23)C[C@H]1CC (single isomer, unassigned) [Example 1199]: fulfilled
CCOc1cc(F)ccc1C(c1ccc(F)cc1)N1C[C@H](C)N(c2cc(=O)n(C)c3ccc(C#N)nc23)C[C@H]1C (single isomer, unassigned) [Example 230]: not fulfilled
CC[C@@H]1CN(c2c(Cl)c(=O)n(C)c3ccc(C#N)nc23)CCN1C(c1ccc(Cl)cc1)c1ccc(Cl)cc1: not fulfilled
CC[C@H]1CN(C(C)c2ccc3c(c2)OC(F)(F)O3)[C@H](CC)CN1c1cc(=O)n(C)c2ccc(C#N)nc12 (single isomer, unassigned) [Example 1369]: not fulfilled
C[C@@H]1CN(c2cc(=O)n(C)c3ccc(C#N)nc23)[C@@H](C)CN1C(c1ccccc1F)c1ccccc1F: fulfilled
